// provenance: a melting point compilation (Tetko et al.; mined from patent text by program, amines drawn as free bases though some values may be those of a salt)

REPORTED_PROPERTY: melting point

Input line: So what does the record say about melting point for Fc1ccccc1C1=NCc2ccccc2-c2ccc(Br)cc21 ?
Output line: 104 to 105 °C

Input line: So what does the record say about melting point for CCOC(=O)c1c(C(F)(F)F)nc(C(F)(F)F)c(C(=O)OCC)c1Cl ?
Output line: 76 to 77 °C

Input line: So what does the record say about melting point for CCN(C)C(=O)NC(=N)SC ?
Output line: 74 to 76 °C

Input line: So what does the record say about melting point for CSc1c(Cl)c(-c2cc(SC(C)C(=O)O)c(Cl)cc2Cl)nn1C (centres undefined) ?
Output line: 180 °C

Input line: So what does the record say about melting point for CCCc1ccc(C=NN=Cc2ccc(F)cc2)cc1 ?
Output line: 70.5 °C

Input line: So what does the record say about melting point for CCCC(=O)c1cc2c(=O)c(C(=O)O)c[nH]c2cc1C ?
Output line: 249 to 252 °C

Input line: So what does the record say about melting point for O=[N+]([O-])c1ccc(-c2scc3c2OCCO3)cc1 ?
Output line: 184 to 186 °C

Input line: So what does the record say about melting point for CC(=O)N1CCc2cc(S(=O)(=O)n3c(COC(C)(C)C(=O)O)cc4cc(Cl)ccc43)ccc21 ?
Output line: 142 to 144 °C

Input line: So what does the record say about melting point for Cc1ccc(S(=O)(=O)N2[C@@H](c3noc(C)n3)CC[C@H]2c2ccc(F)cc2)cc1 (racemic) ?
Output line: 115 °C

Input line: So what does the record say about melting point for CCN(C=O)c1ccccc1C(=O)COC(=O)c1ccccc1 ?
Output line: 78 to 80 °C

Input line: So what does the record say about melting point for CCOC(=O)C(=NOCc1ccc(OCc2nc(-c3ccccc3)oc2C)cc1)c1ccc(Br)cc1 ?
Output line: 105 to 106 °C

Input line: So what does the record say about melting point for c1ccc2nc(CSc3nc4cccc5c4n3CCC5)ccc2c1 ?
Output line: 125 to 126 °C

Input line: So what does the record say about melting point for COc1ccc(C=C(NC(=O)c2ccccc2)C(=O)O)cc1OC ?
Output line: 196 to 198 °C

Input line: So what does the record say about melting point for CN1C(c2ccc(Br)cc2)C2C(=O)N(Cc3ccc4c(c3)OCO4)C(=O)C2C1(C)C (centres undefined) ?
Output line: 109 to 111 °C

Input line: So what does the record say about melting point for Cc1ccc(S(=O)C2CC3C(=O)C(c4ccc(F)cc4)=CC2N3C)cc1 (mixture of isomers) ?
Output line: 186 °C

Input line: So what does the record say about melting point for O=C1CCC2=C1C(Cc1ccccc1)(Cc1ccccc1)c1ccccc12 ?
Output line: 155 °C

Input line: So what does the record say about melting point for CCc1nc(-c2cccc(C#N)c2)c(-c2ccnc(N)c2)s1 ?
Output line: 178 to 179 °C

Input line: So what does the record say about melting point for CSCc1nc(C)c(C)c(O)n1 ?
Output line: 166 °C

Input line: So what does the record say about melting point for COCCN(C)c1cc2ncc(C#N)c(C)c2cc1OC ?
Output line: 90 to 96 °C

Input line: So what does the record say about melting point for CC1(C)Oc2ccc(C#N)cc2[C@@H](NC(=NC#N)N2CCCC2)[C@@H]1O (relative stereo) ?
Output line: 263 to 264 °C

Input line: So what does the record say about melting point for Oc1cccc(C2CCCN2Cc2ccccn2)c1 (centres undefined) ?
Output line: 96 to 98 °C

Input line: So what does the record say about melting point for CCCCCNC(=O)N(C)c1ncc(-c2ccc(C[C@H](OCC)C(=O)O)cc2)s1 ?
Output line: 114 °C

Input line: So what does the record say about melting point for Cc1cc2ccc(Cl)c(Cl)c2[nH]1 ?
Output line: 70 to 71 °C

Input line: So what does the record say about melting point for CC(C)NC(=O)N1CCc2[nH]cnc2C1c1ccccn1 (centres undefined) ?
Output line: 240 °C

Input line: So what does the record say about melting point for Cc1c(C(=O)O)nc2c(=O)[nH]c3ccc(-n4ccnc4)cc3n12 ?
Output line: > 250 °C

Input line: So what does the record say about melting point for COC(=O)c1ccnc(Cl)c1N ?
Output line: 91 to 92 °C

Input line: So what does the record say about melting point for COc1ccc(N2CCOCC2)c2sc(C(=O)NCC(=O)c3ccsc3)nc12 ?
Output line: 170 °C

Input line: So what does the record say about melting point for Cc1cc(C2(C(F)(F)F)CC(c3ccc(F)cc3)=NO2)ccc1NC(=O)OC(C)(C)C (centres undefined) ?
Output line: 149 to 150 °C

Input line: So what does the record say about melting point for CSc1nn2c(N3CCN(Cc4ccccc4)CC3)cc(C)nc2c1S(=O)(=O)c1ccccc1 ?
Output line: 156 to 158 °C

Input line: So what does the record say about melting point for COc1ccc(-c2cc3ncccc3c(O)n2)cc1 ?
Output line: 295 to 298 °C

Input line: So what does the record say about melting point for Cc1cc(-c2nc(COc3ccc(CCCCn4ccnc4)cc3)co2)sc1Br ?
Output line: 85 to 86 °C

Input line: So what does the record say about melting point for CC(=O)C(C#N)c1cccc(Br)c1 (centres undefined) ?
Output line: 96 to 100 °C

Input line: So what does the record say about melting point for CCC(C)P(=S)(NP(=S)(C(C)CC)C(C)CC)C(C)CC (centres undefined) ?
Output line: 110 to 114 °C

Input line: So what does the record say about melting point for CCOC(=O)c1ccc2nc(CC3CCN(c4ccc(Cl)nn4)CC3)sc2c1 ?
Output line: 158 °C

---

REPORTED_PROPERTY: melting point

Input line: So what does the record say about melting point for OC(CCCN1CCN(c2ncc(F)cn2)CC1)(c1ccc(F)cc1)C1CCCCC1 (stereo unspecified) ?
Output line: 53 to 59 °C

Input line: So what does the record say about melting point for CCOC1CCN(C(=O)c2cc(-c3ccccc3)c(=O)n3ccc4ccsc4c23)C1 (stereo unspecified) ?
Output line: 167 to 170 °C

Input line: So what does the record say about melting point for CS(=O)c1cc(CCC(=O)O)cc(-c2nc(=O)c3ccccc3s2)n1 (stereo unspecified) ?
Output line: 266 °C

Input line: So what does the record say about melting point for CCOC(=O)c1cc(N)ccc1OC(C)=O ?
Output line: 82.5 to 83 °C

Input line: So what does the record say about melting point for CCCCSc1cnc2c(c1)CCC(c1ccc(Cl)c(Cl)c1)O2 (stereo unspecified) ?
Output line: 59.5 to 61 °C

Input line: So what does the record say about melting point for O=C(O)c1ccc(CN(C2CCCCC2O)S(=O)(=O)c2ccc(Cl)cc2)cc1 (stereo unspecified) ?
Output line: 218 to 219 °C

---

REPORTED_PROPERTY: melting point

Input line: So what does the record say about melting point for CC(C)(CCCCCCCCCCC(C)(C)C(Cl)(Cl)C(=O)O)C(Cl)(Cl)C(=O)O ?
Output line: 154 °C

Input line: So what does the record say about melting point for Cc1nc(-c2ccccc2)nc(OCC(=O)Nc2ccccc2)c1C ?
Output line: 212 to 213 °C

Input line: So what does the record say about melting point for COCOc1ccc(-c2ccc(OCOC)c(F)c2)cc1F ?
Output line: 76.3 to 77.3 °C

Input line: So what does the record say about melting point for CC(C)(C)OC(=O)N1CCc2c(n(CCOc3ccccc3)c3ccc(Cl)c(Cl)c23)CC1 ?
Output line: 175 to 176 °C

Input line: So what does the record say about melting point for CCCCCCCCOc1ccc(-c2ncc(Br)cn2)c(F)c1F ?
Output line: 74.6 °C

Input line: So what does the record say about melting point for CCCCn1c(O)nc2c(N)ncnc21 ?
Output line: 222 to 224 °C

Input line: So what does the record say about melting point for CCOC(=O)c1cc(N=c2sc(=O)n3n2CCCC3)c(Cl)cc1Cl ?
Output line: 81 to 83 °C

Input line: So what does the record say about melting point for Cc1cccc(-c2sc(NC(=O)Nc3ccccc3)nc2-c2cc(C)nc(C)c2)c1 ?
Output line: 173 to 174 °C

Input line: So what does the record say about melting point for CC(Cl)Cn1cc(-c2ccccc2)c2ccccc2c1=O (stereo not drawn) ?
Output line: 141 °C

Input line: So what does the record say about melting point for CCOC(=O)C(C(=O)OCC)[C@@H](c1ccccc1)c1c[nH]c2cccc(OC)c12 ?
Output line: 134 to 136 °C

Input line: So what does the record say about melting point for CC(C)=CCC/C(C)=C/CSc1nc2cc(F)c(Cl)cc2[nH]1 ?
Output line: 122 to 124 °C

Input line: So what does the record say about melting point for COc1cc(OC)c(-c2cc3ccccc3[nH]2)cc1C=CC(=O)c1ccc(S(=O)(=O)NC(C)=O)cc1 ?
Output line: 218 to 220 °C

Input line: So what does the record say about melting point for CCOC(=O)C(=O)Nc1cc(C)c(C)cc1[N+](=O)[O-] ?
Output line: 109 °C

Input line: So what does the record say about melting point for NC1CCN(c2nc3c(cc2F)c(=O)c(C(=O)O)cn3CCF)C1 (stereo not drawn) ?
Output line: 251 to 255 °C

Input line: So what does the record say about melting point for O=C(O)Cc1cc(F)ccc1Sc1ccccc1 ?
Output line: 80 to 83 °C

Input line: So what does the record say about melting point for CN=C1SCC(O)(c2ccc(Cl)c(S(=O)(=O)N(C)C)c2)N1C (stereo not drawn) ?
Output line: 157 to 158 °C

Input line: So what does the record say about melting point for O=C(O)Cc1ccc2c(c1)C(=O)c1cc(F)ccc1CO2 ?
Output line: 173 to 175 °C

Input line: So what does the record say about melting point for CC(CCCOc1ccc(C2=C(c3ccccc3)CCCc3cc(O)ccc32)cc1)S(=O)(=O)Cc1ccco1 (stereo not drawn) ?
Output line: 168 °C
